# test: Toxicity liver stage against HepG2, at 10uM
# Format: cell-based
# Set-up: test concentration 10 uM, cell line HepG2-A16-CD81EGFP
# settings: human, HepG2-A16-CD81EGFP cells; read-out: INHIBITION
A collection of molecules and their measured cytotoxicity at 10 µM
Respond numerically; units are % and should not be typed.

Answered cases to consult:
[[record]]
molecule = "CC(CNC(=O)c1ccc(F)cc1I)N1CCCC1 (centres undefined)"
unit_info = "%"
obs_value = 1.28

[[record]]
molecule = "Cc1c(C2N3CC4(C)CN2CC(C)(C3)C4=O)[nH]c(=O)[nH]c1=O (centres undefined)"
unit_info = "%"
obs_value = 6.57


Lab book: cytotoxicity at 10 µM of COc1ccnc(N2CCN(C(=O)c3csc(C(C)C)n3)CC2)n1 noted as -1.82

Lab book: cytotoxicity at 10 µM of CC1CN(S(=O)(=O)c2cc(S(C)(=O)=O)ccc2Br)c2cccnc2O1 (centres undefined) noted as -0.346

Lab book: cytotoxicity at 10 µM of COc1ccc([C@@H]2NC(=O)N[C@H]3OCCC[C@H]32)cc1 noted as 1.49

Lab book: cytotoxicity at 10 µM of CC(C)Cc1nc(-c2ccnc(N3CCNCC3)n2)no1 noted as 2.04

Lab book: cytotoxicity at 10 µM of O=C(c1ccccn1)N1CCCC(c2cc(C(F)F)n3ncnc3n2)C1 (centres undefined) noted as -1.74

Lab book: cytotoxicity at 10 µM of O=C(O)[C@]12CCCN(Cc3ccncc3)C[C@H]1CN(c1ncccn1)C2 noted as 2.59

Lab book: cytotoxicity at 10 µM of Cc1nccc(N2CC[C@@H]3[C@@H](CCC(=O)N3CCc3ccccc3)C2)n1 noted as 2.19

----------
# test: Toxicity liver stage against HepG2, at 10uM
# Format: cell-based
# Set-up: test concentration 10 uM, cell line HepG2-A16-CD81EGFP
# settings: human, HepG2-A16-CD81EGFP cells; read-out: INHIBITION
quantity.name: cytotoxicity at 10 µM

Answered cases to consult:
[[record]]
compound = "COc1ncccc1CNC(=O)N1CCCC1c1ccsc1 (configuration not stated)"
quantity_name = "cytotoxicity at 10 µM"
obs_value = "-15.9%"

[[record]]
compound = "CC1(c2ccccc2)CCC(=O)N(CCN2CCOC2=O)C1 (configuration not stated)"
quantity_name = "cytotoxicity at 10 µM"
obs_value = "3.37%"

[[record]]
compound = "CCS(=O)(=O)N1CCCC2(CCCN2C(=O)c2cn(C)cn2)C1 (configuration not stated)"
quantity_name = "cytotoxicity at 10 µM"
obs_value = "8.16%"


Lab book: cytotoxicity at 10 µM of COC(=O)N1CCCC(C(=O)N2CCCCC2)C1 (configuration not stated) noted as -8.58%

Lab book: cytotoxicity at 10 µM of N#Cc1ccc(CC(=O)N2CCC(Nc3cccnn3)CC2)cc1 noted as -4.11%

Lab book: cytotoxicity at 10 µM of CC(C)CC(=O)N1CC(=O)c2sc(Nc3ccc(C#N)cc3)nc2C1 noted as -0.279%

Lab book: cytotoxicity at 10 µM of COc1ccc(OCCc2cc(C3CNCCO3)nn2C)cc1 (configuration not stated) noted as 7.13%

Lab book: cytotoxicity at 10 µM of O=S(=O)(CCN1CCCCC1Cn1cccn1)c1ccccc1 (configuration not stated) noted as -8.66%

Lab book: cytotoxicity at 10 µM of OC(CNCCc1nnc2ccccn12)c1ccc2c(c1)OCO2 (configuration not stated) noted as 4.06%

Lab book: cytotoxicity at 10 µM of O=C(NCCCn1cccn1)c1nnc2ccccc2n1 noted as 0.14%

Lab book: cytotoxicity at 10 µM of CN(C)C(=O)CN1CCC(c2c(C(N)=O)sc3ncccc23)C1 (configuration not stated) noted as 8.42%

Lab book: cytotoxicity at 10 µM of CCOc1ccc(S(=O)(=O)NC(=O)c2c(C)noc2C(C)C)cc1 noted as -3.08%
